Source listed as patent US20230256092A1.

Listed below: IC50 (nM), Ca2+ influx by 200 nM hCCL1 values for each entry.
Target: human CCR8 (human, UniProt P51685 1-355)
Experiment: cell-based or functional assay
Number in nM, nothing else.

Q: For the binder h10A11 (IGKV2-40/IGHV3-15 T94R) (antibody, V domains shown) VH: EVQLVESGGALVKPGGSLRLSCAASGFTFSTYALYWVRQAPGKGLEWVGRIRSKSNNYATYYADSVKDRFTISRDDSKNTLYLQMNSLKTEDTAVYYCTRARFYYSDYGYAMDYWGQGTLVTVSS VL: DIVMTQTPLSLPVTPGEPASISCRSSKSLLHSNGNTYLYWYLQKPGQSPQLLIYRMSNLASGVPDRFSGSGSGTDFTLKISRVEAEDVGVYYCMQHLEYPLTFGQGTKLEIKR , give its reported IC50 (nM), Ca2+ influx by 200 nM hCCL1.
A: 0.3

Q: For the binder h10A11 (IGKV1-39/IGHV3-73) (antibody, V domains shown) VH: EVQLVESGGGLVQPGGSLKLSCAASGFAFNTYALYWVRQASGKGLEWVGRIRSKSNNYATYYADSVKDRFTISRDDSKNTAYLQMNSLKTEDTAVYYCTRARFYYSDYGYAMDYWGQGTLVTVSS VL: DIQMTQSPSSLSASVGDRVTITCRSSKSLLHSNGNTYLYWYQQKPGKAPKLLIYRMSNLASGVPSRFSGSGSGTDFTLTISSLQPEDFATYYCMQHLEYPLTFGQGTKLEIKR , give its reported IC50 (nM), Ca2+ influx by 200 nM hCCL1.
A: 0.16

Q: For the binder 10A11 (antibody, V domains shown, mouse hybridoma antibody, purified; also called m10A11) VH: EVQLVESGGRLVQPKGSLKLSCAASGFAFNTYALYWIRQAPGKGLEWVARIRSKSNNYATYYADSVKDRFTISRDDSQSMLYLQMNNLKTEDTAMYYCVRARFYYSDYGYAMDYWGQGTSVTVSS VL: DIVMTQAAPSVPVTPGESVSISCRSSKSLLHSNGNTYLYWFLQRPGQSPQLLIYRMSNLASGVPDRFSGSGSGTAFTLRISRVEAEDVGVYYCMQHLEYPLTFGAGTKLELKR , give its reported IC50 (nM), Ca2+ influx by 200 nM hCCL1.
A: 0.23

Q: For the binder h10A11 (IGKV2-40/IGHV3-73) (antibody, V domains shown) VH: EVQLVESGGGLVQPGGSLKLSCAASGFAFNTYALYWVRQASGKGLEWVGRIRSKSNNYATYYADSVKDRFTISRDDSKNTAYLQMNSLKTEDTAVYYCTRARFYYSDYGYAMDYWGQGTLVTVSS VL: DIVMTQTPLSLPVTPGEPASISCRSSKSLLHSNGNTYLYWYLQKPGQSPQLLIYRMSNLASGVPDRFSGSGSGTDFTLKISRVEAEDVGVYYCMQHLEYPLTFGQGTKLEIKR , give its reported IC50 (nM), Ca2+ influx by 200 nM hCCL1.
A: 0.21

Q: For the binder h10A11 (IGKV1-39/IGHV3-15 T94R) (antibody, V domains shown) VH: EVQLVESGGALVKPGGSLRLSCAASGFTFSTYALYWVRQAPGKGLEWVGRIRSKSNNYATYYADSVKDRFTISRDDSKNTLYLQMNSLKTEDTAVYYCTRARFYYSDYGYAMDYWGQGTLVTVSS VL: DIQMTQSPSSLSASVGDRVTITCRSSKSLLHSNGNTYLYWYQQKPGKAPKLLIYRMSNLASGVPSRFSGSGSGTDFTLTISSLQPEDFATYYCMQHLEYPLTFGQGTKLEIKR , give its reported IC50 (nM), Ca2+ influx by 200 nM hCCL1.
A: 0.2

Q: For the binder h10A11 (IGKV3-20/IGHV3-15 T94R) (antibody, V domains shown) VH: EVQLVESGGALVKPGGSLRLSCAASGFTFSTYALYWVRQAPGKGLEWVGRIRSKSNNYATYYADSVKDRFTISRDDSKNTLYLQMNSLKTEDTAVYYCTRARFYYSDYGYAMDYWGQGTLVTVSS VL: EIVLTQSPGTLSLSPGERATLSCRSSKSLLHSNGNTYLYWYQQKPGQAPRLLIYRMSNLASGIPDRFSGSGSGTDFTLTISRLEPEDFAVYYCMQHLEYPLTFGQGTKVEIKR , give its reported IC50 (nM), Ca2+ influx by 200 nM hCCL1.
A: 0.16

Q: For the binder h10A11 (IGKV1-16/IGHV3-15 T94R) (antibody, V domains shown) VH: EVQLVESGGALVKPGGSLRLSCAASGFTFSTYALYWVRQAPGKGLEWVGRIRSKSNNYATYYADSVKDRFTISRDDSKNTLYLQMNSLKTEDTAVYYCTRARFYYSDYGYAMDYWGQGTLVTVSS VL: DIQMTQSPSSLSASVGDRVTITCRSSKSLLHSNGNTYLYWFQQKPGKAPKSLIYRMSNLASGVPSRFSGSGSGTDFTLTISSLQPEDFATYYCMQHLEYPLTFGQGTKLEIKR , give its reported IC50 (nM), Ca2+ influx by 200 nM hCCL1.
A: 0.7

Q: For the binder h10A11 (IGKV4-1/IGHV3-73) (antibody, V domains shown) VH: EVQLVESGGGLVQPGGSLKLSCAASGFAFNTYALYWVRQASGKGLEWVGRIRSKSNNYATYYADSVKDRFTISRDDSKNTAYLQMNSLKTEDTAVYYCTRARFYYSDYGYAMDYWGQGTLVTVSS VL: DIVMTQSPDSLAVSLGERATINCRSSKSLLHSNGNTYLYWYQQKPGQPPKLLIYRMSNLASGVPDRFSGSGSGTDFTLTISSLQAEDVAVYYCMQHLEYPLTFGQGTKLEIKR , give its reported IC50 (nM), Ca2+ influx by 200 nM hCCL1.
A: 0.17

Q: For the binder h10A11 (IGKV4-1/IGHV3-15 T94R) (antibody, V domains shown) VH: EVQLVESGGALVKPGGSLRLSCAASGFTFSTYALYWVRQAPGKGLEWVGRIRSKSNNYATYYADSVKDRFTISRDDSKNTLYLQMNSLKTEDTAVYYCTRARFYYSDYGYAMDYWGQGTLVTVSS VL: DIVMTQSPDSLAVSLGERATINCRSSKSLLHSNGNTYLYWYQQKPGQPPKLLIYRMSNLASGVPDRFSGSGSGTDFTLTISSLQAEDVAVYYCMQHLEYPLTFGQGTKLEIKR , give its reported IC50 (nM), Ca2+ influx by 200 nM hCCL1.
A: 0.15

Q: For the binder h10A11 (IGKV2-28/IGHV3-73) (antibody, V domains shown) VH: EVQLVESGGGLVQPGGSLKLSCAASGFAFNTYALYWVRQASGKGLEWVGRIRSKSNNYATYYADSVKDRFTISRDDSKNTAYLQMNSLKTEDTAVYYCTRARFYYSDYGYAMDYWGQGTLVTVSS VL: DIVMTQSPLSLPVTPGEPASISCRSSKSLLHSNGNTYLYWYLQKPGQSPQLLIYRMSNLASGVPDRFSGSGSGTDFTLKISRVEAEDVGVYYCMQHLEYPLTFGQGTKVEIKR , give its reported IC50 (nM), Ca2+ influx by 200 nM hCCL1.
A: 0.2
